Data provenance is paper PMC6949113.

# Tested on: Zika
# experimental.protocol: Anti-Zika virus assay (XTT)
# Format: cell-based
# experimental.conditions: Zika in Vero cells
# From the text: Anti-Zika Virus (Zika). […] Monolayers were approximately 70% confluent for the assay. Zika virus strain MR766 was obtained from ATCC (VR-84) and a stock virus pool was produced in LLCMK2 cells. Determination of antiviral activity and cytotoxicity.
pEC50: −log10 of the molar value.
value.kind: pEC50

>  <compound>
NC(=O)c1ncn([C@@H]2O[C@H](CO)[C@@H](O)[C@H]2O)n1 [Ribavirin]

>  <numeric.result>
5.25

$$$$
